# run conditions: 283.15 K; 100 kPa; Liquid; Frequency=1.5 MHz; Single path-length method
For each entry below, report its speed of sound value.
Give bare numbers, in m/s.

>>> observed_measurement("CCCCCCCC")
1234.6
>>> observed_measurement("CCCCCC")
1147.3
>>> observed_measurement("CCO")
1198.8
>>> observed_measurement("Cc1ccccc1")
1369.5
>>> observed_measurement("O")
1447.3

Record speed of sound per entry; entries follow.
1. CCCO
2. CCCCCCC

[1260.3, 1197.2]

Data request, read-out speed of sound, for `CO` 1154.3

----------
For each entry below, report its speed of sound value.
# run conditions: 303.15 K; 100 kPa; Liquid; Frequency=1.5 MHz; Single path-length method
Answers are plain numbers, in m/s.

Please review the following examples before continuing.
>>> observed_measurement("CCCO [propan-1-ol]")
1189.2
>>> observed_measurement("CCO [ethanol]")
1129.3
>>> observed_measurement("CCCCCC [hexane]")
1056.2
>>> observed_measurement("CO [methanol]")
1087.4

Record speed of sound per entry; entries follow.
1. Cc1ccccc1 [toluene]
2. CCCCCCCC [octane]
3. CCCCCCC [heptane]

1. 1284.1
2. 1151.8
3. 1111.4
